Data origin, for the record: patent US6730792B2

target: human β3 adrenergic receptor (Homo sapiens); construct: expressed in transfected cells; host or cells: DXB-11 Chinese hamster ovary (CHO) cell line, stably transfected (phd expression vector); test: whole cell receptor coupled c-AMP assay, human β3 receptor in CHO cells (EC50, Emax relative to isoproterenol); assay type: cell-based; conditions: Emax ± standard error of the mean; average of at least 3 runs except where n = 1; compound tested in the isolated form listed
quantityName: Emax (%) ± SEM

{"molecule": "CC(C)(Cc1ccc(Oc2nc(Cl)c(Cl)cc2Cl)cc1)NC[C@H](O)COc1ccccc1-c1cccs1.O=C(O)C(F)(F)F", "assayTarget": "human β3 adrenergic receptor (Homo sapiens)", "Emax (%) ± SEM": 84.9}

[1] CC(C)(Cc1ccc(Oc2ccc(C(N)=O)cn2)cc1)NC[C@H](O)COc1ccccc1-c1cscn1.Cl
[2] CC(C)(Cc1ccc(Oc2cccc(Cl)c2C#N)cc1)NC[C@H](O)COc1ccccc1-c1ccno1.O=C(O)C(F)(F)F
[3] CC(C)(Cc1ccc(Oc2ccc(C(N)=O)cn2)cc1)NC[C@H](O)COc1ccccc1N1CCCC1=O
Problem: Order field: Emax (%) ± SEM | Direction: descending (largest first) Return value: ordered labels per request.
Solution: 2, 1, 3
(2: 76.2%, 1: 47.5%, 3: 22.0%)

[P] CC(C)(Cc1ccc(Oc2ccc(C(F)(F)F)cc2Cl)cc1)NC[C@H](O)COc1ccccc1-c1cccs1.O=C(O)C(F)(F)F
[Q] CC(C)(Cc1ccc(Oc2ccc(C(N)=O)cn2)cc1)NC[C@H](O)COc1ccccc1-c1ccnc(N)n1
Problem: Which has the smaller recorded Emax (%) ± SEM, P or Q ? Let me know the label of the one you choose.
Solution: Q

----------
target: human β3 adrenergic receptor (Homo sapiens, UniProt P13945); construct: expressed in transfected cells; host or cells: DXB-11 Chinese hamster ovary (CHO) cell line, stably transfected (phd expression vector); assay: whole cell receptor coupled c-AMP assay, human β3 receptor in CHO cells (EC50, Emax relative to isoproterenol); type: cell-based; conditions: Emax ± standard error of the mean; average of at least 3 runs except where n = 1; compound tested in the isolated form listed
Sequence (P13945 whole entry): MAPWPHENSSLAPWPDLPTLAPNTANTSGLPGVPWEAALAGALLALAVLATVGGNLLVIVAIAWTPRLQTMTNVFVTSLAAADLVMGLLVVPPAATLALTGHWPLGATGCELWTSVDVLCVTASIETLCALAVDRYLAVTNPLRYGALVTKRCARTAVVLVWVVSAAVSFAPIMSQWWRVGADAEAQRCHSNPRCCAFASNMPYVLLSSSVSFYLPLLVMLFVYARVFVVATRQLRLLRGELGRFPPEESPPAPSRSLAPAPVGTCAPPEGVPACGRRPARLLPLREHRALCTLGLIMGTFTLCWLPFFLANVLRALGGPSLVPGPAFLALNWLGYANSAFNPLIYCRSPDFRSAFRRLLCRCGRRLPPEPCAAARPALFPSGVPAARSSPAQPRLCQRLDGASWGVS
quantityName: Emax (%) ± SEM

Solved cases (4 shown):
{"molecule": "CC(C)(Cc1ccc(Oc2ncccc2C#N)cc1)NC[C@H](O)COc1ccccc1-c1ccno1", "measuredValue": 74.5}
{"molecule": "CC(C)(Cc1ccc(Oc2ccc(C#N)cc2)cc1)NC[C@H](O)COc1ccccc1-c1nccs1.O=C(O)C(F)(F)F", "measuredValue": 35.8}
{"molecule": "CCOC(=O)c1ccc(Oc2ccc(CC(C)(C)NC[C@H](O)COc3ccccc3-c3cccs3)cc2)c(F)c1.O=C(O)C(F)(F)F", "measuredValue": 64.1}
{"molecule": "CC(C)(Cc1ccc(Oc2ncccc2C#N)cc1)NC[C@H](O)COc1ccccc1-c1ccno1.Cl", "measuredValue": 66.8}

[A] CC(C)(Cc1ccc(Oc2ccccn2)cc1)NC[C@H](O)COc1ccccc1-c1cccs1.O=C(O)C(F)(F)F
[B] CC(C)(Cc1ccc(Oc2ccc(C#N)cc2F)cc1)NC[C@H](O)COc1ccccc1-c1nccs1.O=C(O)C(F)(F)F
[C] CC(C)(Cc1ccc(Oc2cccc(Cl)c2C#N)cc1)NC[C@H](O)COc1ccccc1-c1cccs1.O=C(O)C(F)(F)F
Problem: Hi! Can you put these in order of Emax (%) ± SEM, lowest number first? Return value: ordered labels per request.
Solution: B, A, C
(B: 38.3%, A: 58.1%, C: 85.4%)

----------
target: human β3 adrenergic receptor (Homo sapiens); construct: expressed in transfected cells; host or cells: DXB-11 Chinese hamster ovary (CHO) cell line, stably transfected (phd expression vector); test: whole cell receptor coupled c-AMP assay, human β3 receptor in CHO cells (EC50, Emax relative to isoproterenol); format: cell-based; details: Emax ± standard error of the mean; average of at least 3 runs except where n = 1; compound tested in the isolated form listed
quantityName: Emax (%) ± SEM

Solved cases (4 shown):
{"molecule": "CCOC(=O)c1ccc(Oc2ccc(CC(C)(C)NC[C@H](O)COc3ccccc3-c3ccno3)cc2)c(Cl)c1.O=C(O)C(F)(F)F", "assayTarget": "human β3 adrenergic receptor (Homo sapiens)", "valueUnits": "%", "Emax (%) ± SEM": 52.9}
{"molecule": "CC(C)(Cc1ccc(Oc2ncccc2C(N)=O)cc1)NC[C@H](O)COc1ccccc1N1CCOCC1.Cl.Cl", "assayTarget": "human β3 adrenergic receptor (Homo sapiens)", "valueUnits": "%", "Emax (%) ± SEM": 30.3}
{"molecule": "CC(C)(Cc1ccc(Oc2ccccc2C(N)=O)cc1)NC[C@H](O)COc1ccccc1-n1cccc1.Cl", "assayTarget": "human β3 adrenergic receptor (Homo sapiens)", "valueUnits": "%", "Emax (%) ± SEM": 56.4}
{"molecule": "CC(C)(Cc1ccc(Oc2ccc(C(N)=O)nc2)cc1)NC[C@H](O)COc1ccccc1-c1cccs1.O=C(O)C(F)(F)F", "assayTarget": "human β3 adrenergic receptor (Homo sapiens)", "valueUnits": "%", "Emax (%) ± SEM": 70.3}

[1] CC(C)(Cc1ccc(Oc2ccc(S(C)(=O)=O)cc2F)cc1)NC[C@H](O)COc1ccccc1-c1nccs1.O=C(O)C(F)(F)F
[2] CC(C)(Cc1ccc(Oc2ccc(Cl)cn2)cc1)NC[C@H](O)COc1ccccc1-c1nccs1.O=C(O)C(F)(F)F
Problem: Exercise: compare 1 and 2 ; which one has the greater Emax (%) ± SEM? Let me know the label of the one you choose.
Solution: 2
(2: 56.1%, 1: 37.0%)

----------
Biological target: human β3 adrenergic receptor (Homo sapiens)
Construct: expressed in transfected cells; host or cells: DXB-11 Chinese hamster ovary (CHO) cell line, stably transfected (phd expression vector)
Experiment: whole cell receptor coupled c-AMP assay, human β3 receptor in CHO cells (EC50, Emax relative to isoproterenol)
Type: cell-based
Conditions: Emax ± standard error of the mean; average of at least 3 runs except where n = 1; compound tested in the isolated form listed
Protocol: […] Cells from each of the above cell lines are resuspended and added (20,000/well) to a 96-well plate. […] After halting the incubation with quench buffer (50 mM Na Acetate, 0.25% Triton X-100, pH 5.8), the c-AMP level is quantified by scintillation proximity assay (SPA) using a modification of the commercially available c-AMP kit (Amersham, Arlington Heights, Ill.) with rabbit anti-cAMP antibody (ICN Biomedicals, Aurora, Ohio) for the kit. […]
quantityName: Emax (%) ± SEM (n = 1%)

[I] CCOC(=O)c1cccnc1Oc1ccc(CC(C)(C)NC[C@H](O)COc2ccccc2-c2ccn[nH]2)cc1
[II] CC(C)(Cc1ccc(Oc2ncccc2C(N)=O)cc1)NC[C@H](O)COc1cc(Cl)ccc1-c1nnco1
Problem: Exercise: compare I and II ; which one has the greater Emax (%) ± SEM? Let me know the label of the one you choose.
Solution: I
(I: 23.6 n = 1%, II: 14.2 n = 1%)

----------
molecular target: human β3 adrenergic receptor (Homo sapiens); construct: expressed in transfected cells; host or cells: DXB-11 Chinese hamster ovary (CHO) cell line, stably transfected (phd expression vector); experiment: whole cell receptor coupled c-AMP assay, human β3 receptor in CHO cells (EC50, Emax relative to isoproterenol); assay type: cell-based; settings: Emax ± standard error of the mean; average of at least 3 runs except where n = 1; compound tested in the isolated form listed
Emax (%) ± SEM values, listed per item

Solved cases (3 shown):
{"molecule": "CC(C)(Cc1ccc(Oc2ccc(C(N)=O)cn2)cc1)NC[C@H](O)COc1cccc(C2=NCCN2)c1", "Emax (%) ± SEM": "<10%"}
{"molecule": "Cn1nccc1-c1ccccc1OC[C@@H](O)CNC(C)(C)Cc1ccc(Oc2ccc(S(C)(=O)=O)cc2)cc1", "Emax (%) ± SEM": "<10%"}
{"molecule": "CCOC(=O)c1cccnc1Oc1ccc(CC(C)(C)NC[C@H](O)COc2ccccc2-c2ccnn2C)cc1", "Emax (%) ± SEM": "<10%"}

// next entry
Item: `CC(C)(Cc1ccc(Oc2ccc(C(N)=O)cn2)cc1)NC[C@H](O)COc1cccc(-c2ccnc(N)n2)c1` | System: human β3 adrenergic receptor (Homo sapiens) | Emax (%) ± SEM: 20.5 n = 1%

----------
target: human β3 adrenergic receptor (Homo sapiens, UniProt P13945); construct: expressed in transfected cells; host or cells: DXB-11 Chinese hamster ovary (CHO) cell line, stably transfected (phd expression vector); assay: whole cell receptor coupled c-AMP assay, human β3 receptor in CHO cells (EC50, Emax relative to isoproterenol); format: cell-based; conditions: % intrinsic activity relative to isoproterenol maximal response; average of at least 3 runs; c-AMP in transfected CHO cells
quantityName: Emax (%) ± SEM

{"molecule": "CC(=O)c1ccc(-c2ccccc2OC[C@@H](O)CNC(C)(C)Cc2ccc(Oc3cccnc3C#N)cc2)s1.Cl", "Emax (%) ± SEM": 71.2}
{"molecule": "Cc1ccc(-c2cccc(F)c2OC[C@@H](O)CNC(C)(C)Cc2ccc(Oc3ncccc3C#N)cc2)s1.Cl", "Emax (%) ± SEM": 72.0}
{"molecule": "Cc1ccc(-c2ccccc2OC[C@@H](O)CNC(C)(C)Cc2ccc(Oc3ccc(C(N)=O)cn3)cc2)s1.Cl", "Emax (%) ± SEM": 71.3}
{"molecule": "CC(C)(Cc1ccc(Oc2ncccc2C#N)cc1)NC[C@H](O)COc1ccccc1-c1ccco1.Cl", "Emax (%) ± SEM": 68.9}
